Where do the numbers come from? From PubChem BioAssay (NCI).

- Tested on: OVCAR-3 ovarian
- protocol: NCI-60 one-dose screen, 48 h (100 = growth as untreated, 0 = no growth, -100 = all killed)
- study_conditions: 10 µM unless noted
About 83,000 compounds went through this panel and 20% of them were active in at least one assay; those are over-represented in the sample as a whole.
The label is 1 for growth below 70% and 0 for growth equal to or exceeding 70%.

* COc1ccc2cc(/C=C3\N=C(c4cc(OC)c(OC)c(OC)c4)OC3=O)c(OC)nc2c1 | 0
* Cc1cc(C)nc(NS(=O)(=O)c2ccc(Nc3ccc4c5c(n(CCCN(C)C)c(=O)c4c3)-c3ccccc3C5=O)cc2)n1 | 0
* C#Cc1cccc(Nc2ncnc3ccc(NC(=O)c4ccccc4)cc23)c1 | 1
* N#Cc1ccc(N2Cc3cc(Cl)ccc3OC3=C2C(=O)N(Cc2ccccc2)C3=O)cc1 | 1

----------
growth overview
- Tested on: ACHN renal
- protocol: NCI-60 one-dose screen, 48 h (100 = growth as untreated, 0 = no growth, -100 = all killed)
- study_conditions: 10 µM unless noted
This is part of a sample that, as a whole, favours compounds with a hit. Of some 83,000 tested, about 20% had one in any assay. The source made the active and inactive calls. How the source made its calls: active means growth percent below 10; inactive means the rest.
reported_property: growth

- COc1cc(F)c(-c2nc3c(C)cccc3n2Cc2c(F)cccc2F)c(F)c1: 101% (inactive)
- Cc1cccc(C)c1NCc1nnc(-c2ccco2)o1: 101% (inactive)
- C=C(C)[C@@H]1CC[C@]2(C(=O)N=C=S)CC[C@]3(C)[C@H](CC[C@@H]4[C@@]5(C)CCC(=O)C(C)(C)[C@@H]5CC[C@]43C)[C@@H]12: 27.6% (inactive)
- CCC[S@](=O)c1ccc2nc(NC(=O)OC)[nH]c2c1: 103% (inactive)
- Oc1ccccc1-c1nc2c3ccccc3c3ccccc3c2o1: 91.1% (inactive)
- CC(=O)c1c(OCC#N)ccc2c(C)cc(=O)oc12: 99.8% (inactive)
- C#C[C@@]1(O)[C@@H](CO)O[C@@H](n2cc(Br)c3c(N)ncnc32)[C@@H]1O: -5.98% (active)
- c1cc(CNC23CC4CC(CC(C4)C2)C3)cc(C[N+](Cc2cccc(CNC34CC5CC(CC(C5)C3)C4)c2)(Cc2cccc(CNC34CC5CC(CC(C5)C3)C4)c2)Cc2cccc(CNC34CC5CC(CC(C5)C3)C4)c2)c1 (stereo not drawn): -9.81% [42 µM] (active)
- CN(C)C1=NCCN1: 111% (inactive)
- O=[N+]([O-])c1cccc(CN(Cc2cccc([N+](=O)[O-])c2O)c2ccccc2)c1O: 74.6% (inactive)
- O=C1C(Cl)=C(Nc2ccc3c(c2NC2=C(Cl)C(=O)c4ccccc4C2=O)C(=O)c2ccccc2C3=O)C(=O)c2ccccc21: 29.2% (inactive)
- O=C1CC23OC(C(O)c4ccccc4N12)C1C(c2ccccc2)=NOC13 (stereo not drawn): 52.7% (inactive)
- O=C1NC(SCc2ccc(F)cc2)=N/C1=C/c1cccc(OCc2ccc(Cl)cc2)c1: -53.7% (active)
- C#CC[C@@H]1C[C@]2(C)[C@H]3CC[C@@H]4[C@H]5[C@H](C(=C)C)CC[C@]5(C(=O)O)CC[C@@]4(C)[C@]3(C)CC[C@H]2C(C)(C)[C@H]1O: 6.77% (active)
- CCOC(=O)C1CCN(S(=O)(=O)/N=C2/NC(=O)NC2=C(Cl)Cl)CC1: 14.2% (inactive)
- COc1ccc(/C=C(/C(=O)N2CCN(Cc3ccccc3)CC2)c2cc(OC)c(OC)c(OC)c2)cc1O: 67.2% (inactive)
- CCc1n(Cc2ccc3ccccc3c2)c2ccccc2[n+]1Cc1ccc2ccccc2c1: 96.5% (inactive)
- Cn1c2ccccc2c2c(OC(=O)c3ccccc3)c3c(nc21)-c1ccccc1C3: 97.1% (inactive)

----------
- Test system: PC-3 prostate
- protocol: NCI-60 one-dose screen, 48 h (100 = growth as untreated, 0 = no growth, -100 = all killed)
- study_conditions: 10 µM unless noted
The panel holds about 83,000 compounds, 20% with a hit somewhere; the sample as a whole holds those more often.
Decision: growth >= 50% yields Met, all other cases yield Not met.

- CC(C)NS(=O)(=O)c1cccc(-c2ccc3c(=O)n(CCCN)c4c(c3c2)C(=O)c2ccccc2-4)c1: Met
- Cc1ccc(CS/C(=C\c2ccc([N+](=O)[O-])cc2)C(=O)c2ccc(F)cc2)cc1: Not met
- COc1ccc(-c2cn(-c3ccc(Cl)cc3)c(=S)[nH]2)cc1OC: Met
- O=C1Nc2ccc(Cl)cc2/C1=N/c1nc(-c2ccc(Cl)cc2)cs1: Not met
- COc1cc(NCC(=O)Nc2cc(Nc3ccc(C)cc3)ncn2)c(Cl)c(OC)c1Cl: Met
- NC(=O)CN1C(=O)c2ccccc2C1=O: Met
- COc1cc(-c2csc(NC(=O)Nc3ccc(C(F)(F)F)cc3)n2)cc(OC)c1OC: Not met
- Cc1nc(C)c(C)nc1C: Met
- Nc1c(C(=O)Nc2ccccn2)sc2nc3c(cc12)CCCCCC3: Not met
- CC(C)(C#N)c1cc(F)cc(C(=O)Nc2cc(Nc3ncccc3-c3ncnc4nc[nH]c34)ccc2F)c1: Met
- C=C(C)[C@@H]1CC[C@]2(C(=O)O)CC[C@]3(C)[C@H](CC[C@@H]4[C@@]5(C)C[C@@H](CC#Cc6ccccc6C)C(=O)C(C)(C)[C@@H]5CC[C@]43C)[C@@H]12: Not met
- CN(C)CCCn1c2c(c3cc(-c4cccc(S(N)(=O)=O)c4)ccc3c1=O)C(=O)c1ccccc1-2: Met
- C=C1C(=O)O[C@H]2[C@H]1CC/C(COC(=O)c1cccnc1N)=C\CC[C@@]1(C)O[C@@H]21: Not met
- COc1ccc(/C(=N\O)c2cc(C)c(OC)c(C)c2)cc1O: Not met
- Cc1nn(-c2ccc(-c3ccc(OC(F)(F)F)cc3)cc2)c2nc(-c3ccccc3)nc(N)c12: Met
- NC(=N\N=C\c1ccccc1O)/C(N)=N/N=C/c1ccccc1O: Met
- Nc1ccc(C2=NN(C(=O)c3cc(-c4ccc(Cl)cc4)nc4ccccc34)C(c3ccc(Cl)cc3)C2)cc1 (stereo not drawn): Not met
- CN1CCN(/C=C2\CC(C(=O)NCc3ccc(Cl)cc3Cl)NC2=O)CC1 (stereo not drawn): Met
- COC(=O)c1ccc(NC(=O)CSc2nc(-c3ccc(F)cc3)nc3ccccc23)cc1: Met
- Nc1c(C(=O)Nc2ccccc2)sc2nc3c(cc12)CN(C(=O)OCc1ccccc1)CC3: Not met
- CCOC(=O)c1c(C)nc2c(c1N)/C(=C/c1cccs1)C(=O)N2Cc1ccccc1: Met
- O=S(=O)(Nc1nccs1)c1ccc(Nc2nc(-c3ccncc3)cs2)cc1: Met
- COc1cccc2c1-c1ccccc1C2=O: Not met
- COc1cc(C2=NNC(c3ccc(N(C)C)cc3)C2)cc(OC)c1OC (stereo not drawn): Not met
- CCN1CCN(Cc2ccc(NC(=O)c3cccc(C#Cc4cccc5[nH]nc(N)c45)c3)cc2C(F)(F)F)CC1: Not met
- COC1=CC2C=C(C3N(c4ccccc4)NC(=O)[C@@H]4CCCN34)C(=O)NC2C=C1 (stereo partly drawn): Met
- Cc1cccc(C)c1NC(=O)CN(CC(C)C)CC(O)COc1ccccc1 (stereo not drawn): Met
- CCCCN(CCCC)CC(CN(CC)CC)OC(=O)Nc1ccccc1 (stereo not drawn): Met
- COC(=O)c1ccc2c(c1)n(Cc1ccc3ccccc3c1)c[n+]2Cc1ccc2ccccc2c1: Not met
- CNc1cccc2c1C(=O)c1cccc(N)c1C2=O: Not met
- COc1ccc(NC(=O)Nc2ccc(Nc3nc(C)cc(Nc4ccc(C)cc4)n3)cc2)cc1: Not met
- O=C(O)COc1ccc2c(=O)c3sc4c(=O)c5ccccc5c(=O)c4c3c(=O)c2c1: Met
- COc1cc(C2CC(c3ccc(Nc4nc(NCCO)nc(NCCO)n4)cc3)=NN2c2cc(Cl)cc(Cl)c2)cc(OC)c1OC (stereo not drawn): Not met
- CC(=O)c1ccc(NC(=O)CSc2nnc(-c3cc(-c4ccc(Cl)cc4)nc4ccccc34)o2)cc1: Met
- CC1=C/C(=N\N=C2/C=C(C)CC(C)(C)C2)CC(C)(C)C1: Met
- C=CCn1c(SCC(=O)Nc2ccc(C(=O)/C=C/c3ccc(Cl)cc3)cc2)nnc1-c1cc(OC)c(OC)c(OC)c1: Met

----------
- Test system: ACHN renal
- protocol: NCI-60 one-dose screen, 48 h
- study_conditions: 10 µM unless noted
Compounds without any hit were thinned out: in the full panel of roughly 83,000, 20% have a hit. The source made the active and inactive calls. How the source made its calls: active means growth percent below 10; inactive means the rest.
Possible outcomes: active, inactive

• C=C1C(=O)O[C@H]2[C@H]1CCC(/C=N/c1ncc(Br)cc1N)=C\CC[C@@]1(C)O[C@@H]21 = active
• CC(=O)c1cc2c(N)c(C(=O)Nc3ccccn3)sc2nc1C = inactive
• CCN1CCC[C@H]1c1cc(O)c2c(c1OC)C[C@H]1C[C@H]3[C@H](N)C(=O)C(C(N)=O)=C(O)[C@@]3(O)C(=O)C1=C2O = active
• CC(=O)Oc1c2c(nc3c1c1ccccc1n3Cc1ccccc1)-c1ccccc1C2 = inactive
• CCOC(=O)/C=C1\SC(=Nc2ccc(C#N)cc2)N(CCN2C(=O)/C(=C/C(=O)OCC)SC2=Nc2ccc(C#N)cc2)C1=O = inactive
• Cn1nc(C(F)(F)F)c(-c2cc(C(F)(F)F)cc(C(F)(F)F)c2)c1-c1ccc(OCc2ccc(Cl)cc2)cc1O = active
• O=C1CC23OC4ON=C(Br)C4C2C(O)c2ccccc2N13 (centres undefined) = inactive
• Cc1nc2sc(C(=O)Nc3cccc(Cl)c3C)c(N)c2cc1C(C)O (centres undefined) = inactive
• COc1ccc2nc3nc4ccc[nH]c4cc3c2c1 = inactive
